# Assay target: Cytochrome P450 3A4 (Homo sapiens)
# Measurement notes: Cytochrome panel assay with activity outcomes
# Assay conditions: recombinant CYP, pro-luciferin dealkylation, luminescence, p450-cyp3a4; series mostly up to 57.1 µM
In all, about 16,000 compounds went through this assay and about 5,100 (32%) were called active. Inconclusive results (about 25%) are left out. Calls come from the whole dose curve; as a rule, active = well fitted curve in the direction sought with a large enough effect; inconclusive = small, poorly fitted or top-dose-only effect, or effect the other way; inactive = no such curve, though single readings can be large or run the other way. The list shows a part of the results.
Reply using exactly one outcome from TRUE (active), FALSE (inactive)

Worked cases, answers included:
FC(F)(F)c1ccccc1-c1nccc(NCCN2CCOCC2)n1 :: TRUE
CCNc1ncc2nc(-c3ccc(F)cc3)c(=O)n(C[C@H]3CCCO3)c2n1 :: FALSE
C=CCCC(=O)Nc1nc(C)c(-c2csc(Nc3ccc(Cl)cc3)n2)s1 :: TRUE
O=C(Nc1cccc(F)c1)N1CCC2(CC1)CCN(C(=O)c1csnn1)CC2 :: FALSE
COc1cccc(N=Cc2c[nH][nH]c2=O)c1 :: TRUE

Could you kindly confirm the outcome this assay logged for O=C(NCc1ccccc1)C(c1ccncc1)N(C(=O)c1csnn1)C1CC1 (centres undefined) ?
TRUE

Kindly provide the recorded test outcome for the following compound: `COc1cccc(-c2ccc3ncnc(NCc4cnc(C)cn4)c3c2)c1`
TRUE

Give the logged outcome of this assay for the following compound: `COC(=O)[C@@]1(Cc2ccc(F)cc2)[C@H]2c3cc(C(=O)N4CCCC4)n(CCc4ccc(O)c(O)c4)c3C[C@H]2CN1C(=O)c1ccccc1`
TRUE

Record request — test call for `CCNc1ncc2nc(CCc3ccccc3)c(=O)n(CCC#N)c2n1`
TRUE

Called result for `COc1ccc(Oc2c(Cl)cnn(-c3ccccc3)c2=O)cc1`
TRUE

Assay result, entry `COc1cccc([C@@H]2Oc3ccc(OC)cc3/C(=N/O[C@@H](C)c3cn([C@H]4COC[C@H]4O)nn3)[C@@H]2O)c1` — outcome?
TRUE

# lookup: test call for `O=c1[nH][nH]c(C(F)(F)F)c1C=Nc1cccc(Cl)c1`
FALSE

Which outcome did this test record for the compound `COc1ccc(-c2n[nH]c(C)c2-c2ccc(Cl)cc2)c(O)c1` ?
TRUE

For `Clc1ccccc1-c1cc(NCCN2CCOCC2)ncn1` , which call appears in the assay record?
FALSE

Record lookup: outcome of this test for `Clc1ccc([C@H](Cn2ccnc2)OCc2csc3c(Cl)cccc23)c(Cl)c1` ?
TRUE

GET /call?item= `CC[C@@H]1OC(=O)[C@H](C)[C@H](O[C@@H]2C[C@](C)(OC)[C@H](O)[C@H](C)O2)[C@H](C)[C@H](O[C@@H]2O[C@@H](C)C[C@@H](N(C)C)[C@@H]2O)[C@](C)(O)C[C@H](C)[C@@H]2N[C@H](COCCOC)O[C@H]([C@@H]2C)[C@]1(C)O` returns the recorded outcome of this test.
FALSE

Reference source: PubChem BioAssay AID1851
